B1: CLCN6 (parent)
chain: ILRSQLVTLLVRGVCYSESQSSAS

variants of: B1; assay: protein stability index of a GFP-peptide fusion (GPS, HEK-293T) (PSI 1-6); higher = more stable; conditions: c terminus: a fixed tail appended;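 further: lentivirally expressed fusions sorted by FACS into six bins by GFP to DsRed ratio, PSI derived from sequencing read proportions per bin multiplied by bin number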
measured quantity: protein stability index
Respond with the number and no other words.

Could you tell me which protein stability index is on file for S17H ?
3

Thanks! And A23C ?
2.96

Thanks! And G13S ?
2.89

Thanks! And A23M ?
2.75

Thanks! And L10A ?
1.07

Thanks! And A23D ?
4.03

Thanks! And Y16D ?
2.09

Thanks! And S19H ?
3.62

Thanks! And L2G ?
2.64

Thanks! And L10H ?
2.07

Thanks! And S24M ?
4.04

Thanks! And L2R ?
1.95

Thanks! And V7L ?
3.31
